- Tested on: SNB-75 CNS
- assay-details: NCI tumour cell line growth inhibition, 48 h
metric-name: TGI (µM)
Write the number in µM without appending the unit.

Example molecules with recorded TGI:
COC(=O)[C@]1(c2cc3ccccc3[nH]2)CC2CN(C(=O)OCc3ccccc3)C1CC2=O (stereo partly specified); 64.6
C[n+]1c2ccccc2nc2ccccc21; 3.1

INPUT: Please give the documented TGI of `C[C@H]1CNC(=O)c2cnn3ccc(nc23)N[C@H](C)c2cc(F)ccc2O1`
OUTPUT: 1.05

INPUT: Please give the documented TGI of `O=C(c1ccco1)c1c(C(F)(F)F)n([O-])c2cc(C(F)(F)F)ccc2[n+]1=O`
OUTPUT: 2.96

---

TGI by entry:
- Tested on: SF-539 CNS
- assay-details: NCI tumour cell line growth inhibition, 48 h

O=C(C/C(=N/O)C(F)(F)F)c1cccs1; > 100 µM
O=P(Nc1ccccc1)(Oc1ccccc1)N(CCCl)CCCl (stereo unspecified); > 100 µM
C=C1SC(=Nc2ccccc2Cl)N(C(=O)c2sc3ccccc3c2Cl)C12CCCCC2; > 100 µM
Cc1ccc(NC(=O)/C(Cc2cc(=O)oc3cc(O)ccc23)=N\NC(C)(C)C)cc1C; > 100 µM

INPUT: Please give the documented TGI of `O=C(Nc1ccccc1Cl)c1ccc([N+](=O)[O-])cc1`
OUTPUT: > 100 µM

INPUT: Please give the documented TGI of `Cc1cc(S(=O)(=O)Nc2nncn2-c2ccc(Cl)cc2)c(S)cc1Cl`
OUTPUT: > 10 µM

INPUT: Please give the documented TGI of NC(=O)c1cccc(OCC(O)CO)c1 (stereo unspecified)
OUTPUT: > 100 µM

INPUT: Please give the documented TGI of COC(=O)[C@@H](C)[C@H]1CC[C@@](C)(CCC2=C(C)CC3C=C(C)CCC3C2(C)C)OO1 (stereo partly specified)
OUTPUT: 3.27 µM

INPUT: Please give the documented TGI of `COc1cc(Cc2cnc(N)nc2N)cc(OC)c1OCCCNc1ccc([N+](=O)[O-])cc1`
OUTPUT: 26.1 µM

INPUT: Please give the documented TGI of `Cc1nc(N)nc(N)c1CCCc1ccccc1`
OUTPUT: > 100 µM

INPUT: Please give the documented TGI of CN1Cc2cc(O)c(O)cc2C(O)C1 (stereo unspecified)
OUTPUT: > 100 µM

---

- Tested on: HOP-62 NSCLC
- assay-details: NCI tumour cell line growth inhibition, 48 h
metric-name: TGI

Example compounds with recorded TGI:
COc1ccc(C(=O)CC2=Nc3nnc(CCCCCCCc4nnc5n4C(=O)C(CC(=O)c4ccc(OC)cc4)=N5)n3C2=O)cc1; > 100 µM
COC1=CC(c2ccc[nH]2)=N/C1=C\c1[nH]c(C)c(CC(=O)OCc2ccccc2)c1C; 2.27 µM
Cn1c(-c2ccccc2)c(/C=C/C2=[N+](C)c3ccccc3C2(C)C)c2ccccc21; 12.6 µM

INPUT: Please give the documented TGI of O=P(Nc1ccccc1)(Oc1ccccc1)N(CCCl)CCCl (stereo not drawn)
OUTPUT: > 100 µM

INPUT: Please give the documented TGI of `COC1=CC(=O)C=C(OC)C1=O`
OUTPUT: 54.3 µM

INPUT: Please give the documented TGI of `CCCCCCCCCCCCCCCCCCNC(=S)/N=C/c1c(O)c2ccccc2[nH]c1=O`
OUTPUT: 33 µM

INPUT: Please give the documented TGI of `O=C(O)/C(=C\c1ccc(O)cc1)c1cccc2ccccc12`
OUTPUT: > 100 µM

INPUT: Please give the documented TGI of `CCCOP(=O)(OCCC)OC(C(F)(F)F)C(F)(F)F`
OUTPUT: > 100 µM

INPUT: Please give the documented TGI of `Cc1cc(S(=O)(=O)Nc2nncn2-c2ccc(Cl)cc2)c(S)cc1Cl`
OUTPUT: > 10 µM

INPUT: Please give the documented TGI of `O=C(Nc1ccccc1-c1nn(CN2CCNCC2)c(=S)n(CN2CCNCC2)c1=O)C(F)(F)F`
OUTPUT: 46.6 µM
